Parameter pIC50, tested on 72 kDa type IV collagenase (Homo sapiens, UniProt P08253), listed per item.
Sequence (P08253 whole entry): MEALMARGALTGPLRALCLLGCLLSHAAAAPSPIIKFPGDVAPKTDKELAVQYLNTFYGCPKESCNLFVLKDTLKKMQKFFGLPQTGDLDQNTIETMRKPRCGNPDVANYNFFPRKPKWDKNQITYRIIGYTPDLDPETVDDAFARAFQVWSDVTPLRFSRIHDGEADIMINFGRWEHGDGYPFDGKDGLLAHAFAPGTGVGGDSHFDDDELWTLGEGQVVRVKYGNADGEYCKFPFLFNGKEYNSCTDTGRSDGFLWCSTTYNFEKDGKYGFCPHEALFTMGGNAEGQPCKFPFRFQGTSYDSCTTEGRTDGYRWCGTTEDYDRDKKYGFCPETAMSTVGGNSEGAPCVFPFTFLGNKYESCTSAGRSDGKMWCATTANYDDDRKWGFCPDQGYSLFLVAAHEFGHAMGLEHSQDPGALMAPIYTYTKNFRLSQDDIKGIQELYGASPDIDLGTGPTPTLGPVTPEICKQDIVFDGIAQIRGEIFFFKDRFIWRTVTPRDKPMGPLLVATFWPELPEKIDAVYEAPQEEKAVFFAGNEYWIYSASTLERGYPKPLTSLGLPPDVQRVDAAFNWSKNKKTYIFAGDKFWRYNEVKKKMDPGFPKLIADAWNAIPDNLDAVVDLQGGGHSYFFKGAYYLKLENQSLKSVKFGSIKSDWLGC
pIC50: −log10 of the molar value.

For the compound shown here, Cc1ccc(-c2cc(/C=C3\SC(=S)N(CC(=O)O)C3=O)no2)cc1 , give the reported pIC50.
> 5.00

For the compound shown here, O=C(O)CN1C(=O)/C(=C/c2cc(-c3ccccc3)on2)SC1=S , give the reported pIC50.
< 4.00

For the compound shown here, O=C(O)CN1C(=O)/C(=C/c2cc(-c3ccc(F)cc3)on2)SC1=S , give the reported pIC50.
5.00

For the compound shown here, O=C(O)CN1C(=O)/C(=C/c2cc(-c3ccc(Br)cc3)on2)SC1=S , give the reported pIC50.
< 4.00

For the compound shown here, O=C(O)CN1C(=O)/C(=C/c2cc(-c3ccc(Cl)cc3)on2)SC1=S , give the reported pIC50.
4.72

For the compound shown here, Cc1nc(-c2ccccc2)c(/C=C2\SC(=S)N(CC(=O)O)C2=O)s1 , give the reported pIC50.
< 4.00
